Where these numbers come from: ChEMBL document CHEMBL1153527

tested on: K562; experiment: Cytotoxicity against p53-deficient human K562 cells after 48 hrs by SRB assay; type: functional, cell-based; conditions: K562, 48 h
MEASURED ATTRIBUTE: IC50 (µM)
Just the number please, in µM, no unit attached.

Examples with their reported IC50 follow.
{"COMPOUND": "CCn1cc(-c2nc3ccccc3[nH]2)c(=O)c2cc(F)c(N3CCNCC3)nc21", "ASSAY RESULT": 9.1}
{"COMPOUND": "CC[C@@]1(O)C(=O)OCc2c1cc1n(c2=O)Cc2cc3c(CN(C)C)c(O)ccc3nc2-1 [TOPOTECAN]", "ASSAY RESULT": 1.7}
{"COMPOUND": "CCn1cc(-c2nc3ccc([N+](=O)[O-])cc3o2)c(=O)c2cc(F)c(N3CCNC(C)C3)c(F)c21 (centres undefined)", "ASSAY RESULT": 4.6}
{"COMPOUND": "CC[C@@]1(O)C(=O)OCc2c1cc1n(c2=O)Cc2cc3ccccc3nc2-1 [CAMPTOTHECIN]", "ASSAY RESULT": 1.4}
{"COMPOUND": "CCn1cc(-c2nc3ccc([N+](=O)[O-])cc3[nH]2)c(=O)c2cc(F)c(N3CCNC(C)C3)c(F)c21 (centres undefined)", "ASSAY RESULT": 4.7}

Attention now turns to another entry.
Please respond with reported IC50 (system K562) for CCn1cc(-c2nc3ccc(Cl)cc3[nH]2)c(=O)c2cc(F)c(N3CCNCC3)cc21 .
2.7
